- Test system: RSK3(Kin.Dom.1-N-terminal);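 further: KINOMEscan kinase panel screen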
- Construct: gene RPS6KA2
- run conditions: concentration: 1 μM, replicates: in singlicate; n = 1
Each record here notes measured %Inh.
Dear colleague, please return just the value in %, with no unit written.

Worked examples, 2 molecules total:
Please look up its %Inh: N#Cc1cnc2cc(-c3cnc(CNCCN4CCOCC4)s3)ccc2c1Nc1ccc(Oc2ccccc2)cc1
78

Please look up its %Inh: Nc1ncnc2scc(-c3ccc(NC(=O)Cc4cc(F)ccc4F)cc3)c12.O=C(O)C(F)(F)F
0

---
Please look up its %Inh: CCNC(=O)/C=C/c1n[nH]c2cc(Sc3ccccc3C(=O)NC)ccc12
8

Please look up its %Inh: Cc1ccc(NC(=O)c2cccc(N3CCCCC3)c2)cc1-c1ccc(C(=O)NCC2CC2)cc1
12

Please look up its %Inh: CC(C)NCC(Cc1ccccc1)NC(=O)c1cc(Br)c(-c2ccnc3[nH]ccc23)s1.Cl.Cl (centres unmarked)
16

Please look up its %Inh: CN(c1ccc2c(c1)nc(NCc1ccccc1)n2C)c1ccnc(Nc2ccc(CS(C)(=O)=O)cc2)n1.Cl
0

Please look up its %Inh: CC(C)(C)c1ccc(C(=O)Nc2cn3cc(-n4ccnc4)ccc3n2)cc1
0

Please look up its %Inh: CC(C)c1nc(-c2ccc(F)c(NS(=O)(=O)c3c(F)cccc3F)c2)c(-c2ccnc(Nc3ccc(N4CCOCC4)nc3)n2)s1
24
